Tested on: forskolin-stimulated accumulation of cAMP
Test Name: Cyclic AMP accumulation in intact cells (block of forskolin-stimulated accumulation of cAMP)
Assay type: cell-based
Applied Conditions: 10 min, 37° C.
Recorded Metric: EC50 (nM)

[A] COc1ccc(F)c(/C=C\CNC(=O)C(C)C)c1
[B] CCCC(=O)NCCCc1cccc(OC)c1 [Example 2, N-[3-(3-Methoxyphenyl)propyl]butanamide]
[C] COc1cc(CCCNC(=O)C2CC2)ccc1Cl
Please produce an ascending ranking of these molecules based on EC50. Show the ranking through the labels, in the order asked for.
C, B, A
(C: 3.4 nM, B: 4.9 nM, A: 120 nM)
